Recorded values, source PubChem BioAssay (NCI).

tested on: PC-3 prostate; experiment: NCI-60 one-dose screen, 48 h; conditions: 10 µM unless noted
Compounds without any hit were thinned out: in the full panel of roughly 83,000, 20% have a hit. The source made the active and inactive calls. The calls were made as follows: active = growth percent below 10; inactive = the rest.
Reply using exactly one outcome from yes (active), no (inactive)

Before answering, review these 2 worked examples.
{"molecule": "COc1cc(/C=C/C(=O)N2CCN(C(=O)/C=C/c3ccccc3)CC2)cc(OC)c1OC", "label": "no"}
{"molecule": "CO[C@H]1CC(O[C@@H]2/C(C)=C/C[C@@H]3C[C@@H](C[C@]4(CC[C@H](C)[C@@H](C5CCCCC5)O4)O3)OC(=O)[C@@H]3C=C(C)/C(=N/O)[C@H]4OC/C(=C\\C=C\\[C@@H]2C)[C@]43O)O[C@@H](C)C1O (stereo not given in full)", "label": "yes"}

Task: // param item: "NC(N)=NC(N)=NCCCc1ccccc1" ; yields the recorded call
Output: no

Task: Hi team, can someone confirm the assay call for "COc1ccc(C(=O)/C=C/c2c(Cl)nc3c(c(C)nn3-c3ccccc3)c2-c2ccc(Br)cc2)cc1" ?
Output: no

Task: Assay outcome for CC(C)COCC(CN(Cc1ccccc1)c1ccccc1)N1CCCC1 (stereo not given) : what was it?
Output: no

Task: Which outcome was assigned to "CCCc1cccc(CCC)c1O" in this test?
Output: no

Task: Recorded test outcome, item "CCCc1nn(C)c2c(=O)[nH]c(-c3cc(S(=O)(=O)N4CCN(C)CC4)ccc3OCC)nc12"
Output: no

Task: Hi team, can someone confirm the assay call for "COc1ccc(/C=C2\COc3ccc(O)c(O)c3C2=O)cc1OC" ?
Output: no

Task: So what was the verdict on "ClC1=C(Cl)C(Cl)=C(Cl)C1=Cc1ccc(Cl)cc1" in this test?
Output: yes

Task: Call for entry "C/C(=N/N=C(N)N)c1ccc(Cl)cc1" :
Output: no

====

tested on: A549/ATCC NSCLC; assay: NCI-60 one-dose screen, 48 h (100 = growth as untreated, 0 = no growth, -100 = all killed); settings: 10 µM unless noted
About 83,000 compounds went through this panel and 20% of them were active in at least one assay; those are over-represented in the sample as a whole.
property: growth (%)
Give bare numbers, in %.

Lab note: each compound below needs its growth filled in.
1. COc1ccc(C2CC(c3ccc(OC)c(OC)c3)=NN2C(=O)c2cc(OC)c(OC)c(OC)c2)c(OC)c1 (centres undefined)
2. O=C(/C=C/c1cccnc1)/C=C/c1cccnc1
3. CC/C(=C\c1ccc(N(C)C)cc1)c1nc2ccccc2c(=O)[nH]1
4. C=C(C)[C@H]1CC/C(C)=C/CC[C@]2(C)O[C@H]2CC/C(C=O)=C\C1O (some centres undefined)
5. COc1ccc(C2CC(c3ccc(OC)c(OC)c3)=NN2C(=O)c2cc(OC)c(OC)c(OC)c2)cc1 (centres undefined)
6. O=C1N(C2CCCCC2)C(=O)N1C1CCCCC1
7. CCOc1cc(C(C)(C)C)ccc1C1=N[C@H](c2ccc(Cl)cc2)[C@H](c2ccc(Cl)cc2)N1C(=O)N1CCN(CC#Cc2cccc3c2CN([C@@H]2CCC(=O)NC2=O)C3=O)CC1

Output:
1. 82.8
2. 6.27
3. 98
4. 108
5. 27.2
6. 34.5
7. 24.8

Field: growth. Fill in for each record below.
1. N#Cc1cccc(/C=C(/C(=O)c2ccccc2)c2ccccc2)c1
2. CCCCCCCCCCCCCCCCCc1nccn1CCO

Output:
[62.8, 64.7]

====

test system: SK-MEL-28 melanoma; experiment: NCI-60 one-dose screen, 48 h (100 = growth as untreated, 0 = no growth, -100 = all killed); conditions: 10 µM unless noted
The panel holds about 83,000 compounds, 20% with a hit somewhere; the sample as a whole holds those more often.
property: growth (%)
One number for each entry, in %.

# annotated cases, reported growth shown
{"molecule": "CCOC(=O)c1c(NC(=O)C2CCCCC2C(=O)O)sc2c1CCCC2 (stereo not given)", "target-or-test-system": "SK-MEL-28 melanoma", "property": "growth", "scale-unit": "%", "meas-value": 110}
{"molecule": "O=C(CSCC(=O)N/N=C/c1ccccc1O)N/N=C\\c1ccccc1O", "target-or-test-system": "SK-MEL-28 melanoma", "property": "growth", "scale-unit": "%", "meas-value": 40.4}
{"molecule": "Cc1nc2c(O)cccc2cc1CO", "target-or-test-system": "SK-MEL-28 melanoma", "property": "growth", "scale-unit": "%", "meas-value": 139}
{"molecule": "C[C@]12C[C@H](O)[C@H]3[C@@H](CCC4=CC(=O)CC[C@@]43C)[C@@H]1CC[C@@H]2C(=O)CO", "target-or-test-system": "SK-MEL-28 melanoma", "property": "growth", "scale-unit": "%", "meas-value": 102}
{"molecule": "COc1ccc2c(c1)C(=O)/C(=C/c1ccc([N+](=O)[O-])s1)O2", "target-or-test-system": "SK-MEL-28 melanoma", "property": "growth", "scale-unit": "%", "meas-value": -33.9}
{"molecule": "Nc1ccc(S(=O)(=O)Nc2ncccn2)cc1", "target-or-test-system": "SK-MEL-28 melanoma", "property": "growth", "scale-unit": "%", "meas-value": 118}
{"molecule": "COc1ccc(-c2noc(N)c2-c2cc(OC)c3c(c2)OCO3)cc1", "target-or-test-system": "SK-MEL-28 melanoma", "property": "growth", "scale-unit": "%", "meas-value": 51.8}
{"molecule": "CCOC(=O)C1=C(C)N2C(=NC3=C(CCC/C3=C\\c3ccc(Cl)cc3)C2c2ccc(Cl)cc2)S1 (stereo not given)", "target-or-test-system": "SK-MEL-28 melanoma", "property": "growth", "scale-unit": "%", "meas-value": 48.8}

Could I get growth for every one of these entries?
1. Cn1cc(-c2csc(-c3c[nH]c4ncccc34)n2)c2cc(F)cnc21
2. O=C1/C(=C/c2ccc3cccc(Cl)c3n2)SC(=S)N1CCc1ccc(O)cc1

Output:
1. 96.2
2. 108

Each molecule below has a recorded value; state its growth.
1. CC[C@H](C)C(=O)O[C@H]1C[C@@H](C)C=C2C=C[C@H](C)[C@H](CC[C@@H]3C[C@@H](O)CC(=O)O3)[C@H]21
2. O=C(/C=C/c1cccnc1)NCCCCC1CCCN(C(=O)c2ccccc2)C1 (stereo not given)
3. O=C1Cc2cc(CCn3cncn3)c(Cl)cc2N1
4. CCCCC(C#N)C(N)=O (stereo not given)
5. CC(NC(=O)C(C)Oc1ccc(Cl)cc1Cl)C(=O)O (stereo not given)
6. N#CCCCCCn1c2ccccc2c2c3c(c4c5ccccc5[nH]c4c21)C(=O)N(O)C3=O

Output:
90.6
73.1
67.2
107
113
-2.36

# per-item lookup of growth; items listed below
1. CO[C@H]1CC(O[C@@H]2/C(C)=C/C[C@@H]3C[C@@H](C[C@]4(CC[C@H](C)[C@@H](C5CCCCC5)O4)O3)OC(=O)[C@@H]3C=C(C)/C(=N/O)[C@H]4OC/C(=C\C=C\[C@@H]2C)[C@]43O)O[C@@H](C)C1O (stereo not given in full)
2. CCC(CCC(C)C1CCC2C3CC=C4CC(O)CCC4(C)C3CCC12C)C(C)C (stereo not given) (tested in a mixture with another compound)
3. CCCCCCCCCCSc1ncnc2nc[nH]c12
4. CSc1nnc(C2=CC(=O)c3ccccc3C2=O)n1-c1ccccc1

Output:
1: -87.3; 2: 91.7; 3: 116; 4: 105

====

system: HCC-2998 colon; assay: NCI-60 one-dose screen, 48 h (100 = growth as untreated, 0 = no growth, -100 = all killed); settings: 10 µM unless noted
The panel holds about 83,000 compounds, 20% with a hit somewhere; the sample as a whole holds those more often.
property: growth (%)
Numbers only, in %.

Worked examples, 8 compounds total:
{"compound": "O=C(O)c1ccccc1C(=O)OC1CCCC2CCCC21 (centres undefined)", "property": "growth", "meas-value": 98.5}
{"compound": "COc1ccc(-c2nc3sccn3c2-c2ccnc(S(C)(=O)=O)n2)cc1", "property": "growth", "meas-value": -55}
{"compound": "CCN1C[C@@H](C)n2c(c(O)c3c(=O)n(Cc4ccc(F)c(Cl)c4)nc(C(=O)NC)c32)C1=O", "property": "growth", "meas-value": 14.7}
{"compound": "c1csc([C@@H]2C[C@@H]3Cc4ccc5ccccc5c4N2O3)c1", "property": "growth", "meas-value": 105}
{"compound": "COc1ncc(-c2ccc3nccc(C#CCN4CCN(S(C)(=O)=O)CC4)c3c2)cc1NS(=O)(=O)c1ccc(F)cc1F", "property": "growth", "meas-value": -37}
{"compound": "O=C1/C(=C/c2ccc3cccc(Cl)c3n2)SC(=S)N1CCc1ccc(O)cc1", "property": "growth", "meas-value": 118}
{"compound": "C[C@]12CC[C@@H]3c4ccc(O)c([N+](=O)[O-])c4CC[C@H]3[C@@H]1CC[C@@H]2NS(=O)(=O)c1cccc(Br)c1", "property": "growth", "meas-value": 51.2}
{"compound": "Cc1cc(C)c2c(c1)N1OC(C2)C[C@H]1/C=C/c1ccccc1 (some centres undefined)", "property": "growth", "meas-value": 98.2}

Task: Suppose we examine the compound CC(c1ccccn1)C(C)(O)C(C)c1ccccn1 (centres undefined) ; what growth value has been reported?
Output: 104
